Target: T1, recombinant purified human Nectin-4-Fc fusion protein (human, UniProt Q96NY8 32-349)
T1 construct: Bought ('Aero Biosystems' as printed); not shown: Fc part of the bought fusion protein; captured by anti-human IgG Fc sensors
T1 sequence: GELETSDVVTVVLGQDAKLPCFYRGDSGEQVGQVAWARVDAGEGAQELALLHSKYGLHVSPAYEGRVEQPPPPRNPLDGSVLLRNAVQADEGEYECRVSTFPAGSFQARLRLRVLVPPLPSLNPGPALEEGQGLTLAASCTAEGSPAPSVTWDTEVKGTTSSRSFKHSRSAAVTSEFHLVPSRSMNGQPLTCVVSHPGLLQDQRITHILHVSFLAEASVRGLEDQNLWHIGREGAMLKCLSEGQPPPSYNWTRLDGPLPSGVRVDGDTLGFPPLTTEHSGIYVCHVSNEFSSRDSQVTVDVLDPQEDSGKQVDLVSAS
Assay: BLI (Octet), Nectin-4-Fc on anti-human Fc sensors, run 1
Endpoint Label: koff (s⁻¹)
State just the number; it will be interpreted in s⁻¹.

Data point: LV1186xVδ2 (bispecific antibody, Orientation N-term-anti-Nectin-4 VHH-linker-anti-Vδ2 VHH (5C8); no Fc; also called Nectin-4xVδ2 bispecific VHH) EVQLVESGGGLVQAGGSLRLSCAASRSTFSLNIMGWYRQAPGKQREYVATITSGGSTNYADSVRGRFTISRDNAENTVYLQMDSLKPEDTAVYYCTAELVRRGPTTYWGRGTQVTVSSGGGGSEVQLVESGGGLVQAGGSLRLSCAASGRPFSNYAMGWFRQAPGKEREFVAAISWSGGSTSYADSVKGRFTISRDNAKNTVYLQMNSPKPEDTAIYYCAAQFSGADYGFGRLGIRGYEYDYWGQGTQVTVSS ; koff = 0.00165
